Biological target: full-length P. pyralis luciferase (Photinus pyralis, UniProt P08659, K549A/L550V/N119G/N50D/S548I)
Sequence (P08659 whole entry N50D/N119G/S548I/K549A/L550V, looked up): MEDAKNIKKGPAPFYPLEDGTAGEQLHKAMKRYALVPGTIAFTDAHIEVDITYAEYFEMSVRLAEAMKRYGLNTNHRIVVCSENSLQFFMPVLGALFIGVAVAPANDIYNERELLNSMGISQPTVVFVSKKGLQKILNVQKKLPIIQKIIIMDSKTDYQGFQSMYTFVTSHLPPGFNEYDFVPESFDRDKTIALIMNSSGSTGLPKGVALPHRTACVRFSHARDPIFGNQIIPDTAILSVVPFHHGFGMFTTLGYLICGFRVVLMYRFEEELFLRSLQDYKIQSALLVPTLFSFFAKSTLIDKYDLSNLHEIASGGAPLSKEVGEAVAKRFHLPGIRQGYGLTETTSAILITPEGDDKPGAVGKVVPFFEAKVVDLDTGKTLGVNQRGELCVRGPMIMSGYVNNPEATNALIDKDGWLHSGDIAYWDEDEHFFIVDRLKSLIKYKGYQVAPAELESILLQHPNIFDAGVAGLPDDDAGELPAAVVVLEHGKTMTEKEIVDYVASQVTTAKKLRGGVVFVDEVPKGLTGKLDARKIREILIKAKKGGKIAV
Format: cell-based
Settings: CC_NCI screening; full-length luciferase counter-screen luminescence; normalized to on-plate 0.3% DMSO controls
Where a name gives a salt, the structure may show the parent alone.
Recorded Luciferase Assay % Lum for the following molecules
Observable: Luciferase Assay % Lum (%)

Molecule	Observable	Meas value
COc1cc([C@@H]2c3cc4c(cc3[C@@H](O[C@@H]3O[C@@H]5CO[C@@H](C)O[C@H]5[C@H](O)[C@H]3O)[C@H]3COC(=O)[C@H]23)OCO4)cc(OC)c1O [Etoposide]	Luciferase Assay % Lum	103.75
Cc1c(NC(=O)OC[C@@H]2COCCN2)cn2ncnc(Nc3ccc4c(cnn4Cc4cccc(F)c4)c3)c12 [BMS-599626]	Luciferase Assay % Lum	83.05
Nc1nc2nc[nH]c2c(=S)[nH]1 [Thioguanine]	Luciferase Assay % Lum	92.95
C#CCC(Cc1cnc2nc(N)nc(N)c2n1)c1ccc(C(=O)N[C@@H](CCC(=O)O)C(=O)O)cc1 (some centres unmarked) [Pralatrexate]	Luciferase Assay % Lum	103.37
Nc1nc(F)nc2c1ncn2[C@@H]1O[C@H](COP(=O)(O)O)[C@@H](O)[C@@H]1O [Fludarabine phosphate]	Luciferase Assay % Lum	119.94
CO[C@H]1C[C@@H]2CC[C@@H](C)[C@@](O)(O2)C(=O)C(=O)N2CCCC[C@H]2C(=O)O[C@H]([C@H](C)C[C@@H]2CC[C@@H](O)[C@H](OC)C2)CC(=O)[C@H](C)/C=C(\C)[C@@H](O)[C@@H](OC)C(=O)[C@H](C)C[C@H](C)/C=C/C=C/C=C/1C [RAPAMYCIN]	Luciferase Assay % Lum	77.09
Cn1nnc2c(C(N)=O)ncn2c1=O [Temozolomide]	Luciferase Assay % Lum	99.34
CN1CCN(CCOc2cc(OC3CCOCC3)c3c(Nc4c(Cl)ccc5c4OCO5)ncnc3c2)CC1 [AZD 0530]	Luciferase Assay % Lum	98.71
Cc1ccc(Nc2nccc(N(C)c3ccc4c(C)n(C)nc4c3)n2)cc1S(N)(=O)=O [PAZOPANIB]	Luciferase Assay % Lum	97.40
CC[C@]1(O)C[C@H]2CN(CCc3c([nH]c4ccccc34)[C@@](C(=O)OC)(c3cc4c(cc3OC)N(C=O)[C@H]3[C@@](O)(C(=O)OC)[C@H](OC(C)=O)[C@]5(CC)C=CCN6CC[C@]43[C@@H]65)C2)C1 [Vincristine sulfate]	Luciferase Assay % Lum	109.71
NC(=O)c1ccc(-c2nc(-c3ccc4c(c3)OCO4)c(-c3ccccn3)[nH]2)cc1 [SB 431542]	Luciferase Assay % Lum	93.14
COc1cccc2c1C(=O)c1c(O)c3c(c(O)c1C2=O)C[C@@](O)(C(=O)CO)C[C@@H]3O[C@H]1C[C@H](N)[C@@H](O)[C@H](C)O1 [Epirubicin hydrochloride]	Luciferase Assay % Lum	76.16
CO[C@H]1/C=C\C=C(/C)C(=O)NC2=CC(=O)C(NCCN(C)C)=C(C[C@@H](C)C[C@H](OC)[C@H](O)[C@@H](C)/C=C(\C)[C@@H]1OC(N)=O)C2=O [Compound 17-DMAG]	Luciferase Assay % Lum	84.54
C=CC(=O)Nc1cc2c(Nc3ccc(F)c(Cl)c3)ncnc2cc1OCCCN1CCOCC1 [CANERTINIB]	Luciferase Assay % Lum	50.65

These data points were gathered from paper PMC6858373.
